# System: hES cells
# procedureDetails: devTOX computational model predictions (Version 2.0, Version 2.1) from hES cell metabolomics
# Assay type: cell-based, human
# conditionInfo: single dose per treatment (Dose column)

molecule	Model Predictions Version 2.0
CC1=C(/C=C/C(C)=C/C=C/C(C)=C/CO)C(C)(C)CCC1	Ter
O=c1[nH]cc(F)c(=O)[nH]1	Ter
CC1=C(/C=C/C(C)=C/C=C/C(C)=C\C(=O)O)C(C)(C)CCC1 [13-cis Retinoic Acid]	Ter
CC1(C)S[C@@H]2[C@H](NC(=O)[C@H](N)c3ccc(O)cc3)C(=O)N2[C@H]1C(=O)O	Non
